Ref: PubChem BioAssay AID1159580

# assay text: chemical genetic growth profiling, strain panel (AID 1159580);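 further: tested at 20 µM; growth read once vehicle control cultures reached saturation at 30 °C; 1 = growth at the plate median or of vehicle wells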
# measurement setup: S. cerevisiae deletion strains, growth OD, locus YCR088W, strain abp1, stronger effect = lower value
Out of some 5,500 compounds screened, about 2,000 (36%) were called active. About 18% were inconclusive and are not listed. The list shows a part of the results.
Can you tell me normalized growth for the items I'm about to list?
A bare number is all that is needed in reply.

Item under review: C=CCc1ccc(O)c(OC)c1 . Reported normalized growth?
0.984

Item under review: C=CCc1ccc(OC)cc1 . Reported normalized growth?
1.01

Item under review: CC(=O)S[C@@H]1CC2=CC(=O)CC[C@]2(C)[C@H]2CC[C@@]3(C)[C@@H](CC[C@@]34CCC(=O)O4)C12 (some centres undefined) . Reported normalized growth?
1.01

Item under review: COC(=O)[C@@H]1OC(=O)C2OC23[C@@]1(C)CCC1[C@]2(C)C(C[C@H](O)[C@]13C)C(C)(C)[C@H](OC(C)=O)C[C@@H]2OC(C)=O (some centres undefined) . Reported normalized growth?
1.02

Item under review: COc1ccc(-c2coc3cc(O)ccc3c2=O)c(OC)c1 . Reported normalized growth?
1

Item under review: C[C@]12CCC(=O)C=C1C=CC1C2CC[C@@]2(C)C1CC[C@@]2(O)CCC(=O)O (some centres undefined) . Reported normalized growth?
1.03

Item under review: C[C@]12CCC(=O)C=C1C=CC1C2CC[C@@]2(C)C1CC[C@@]21CCC(=O)O1 (some centres undefined) . Reported normalized growth?
0.974

Item under review: COc1ccc(C(=O)O)cc1OC . Reported normalized growth?
0.996

Item under review: CC[C@@H](C(=O)C(C)[C@@H](O)[C@H](C)CCc1ccc(C)c(O)c1C(=O)O)C1OC(CC)(C2CC[C@](O)(CC)[C@H](C)O2)C[C@@H]1C (some centres undefined) . Reported normalized growth?
1.07

---

# assay text: chemical genetic growth profiling, strain panel (AID 1159580);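 further: tested at 20 µM; growth read once vehicle control cultures reached saturation at 30 °C; 1 = growth at the plate median or of vehicle wells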
# measurement setup: S. cerevisiae deletion strains, growth OD, locus YDL108W, strain KIN28
Out of some 5,500 compounds screened, about 2,000 (36%) were called active. About 18% were inconclusive and are not listed. No stated cut-off is given here; in the data, active means normalized growth mostly below about 0.91 (no sharp cut-off); inconclusive means no clear call, values can overlap the other calls; inactive means mostly above about 0.92. The list shows a part of the results.
// one of T for active, F for inactive, no free text

Hey, what did the test say about CCOC(=O)C1C(c2c(F)cccc2Cl)C(C(=O)OCC)C(O)(C(F)(F)F)NC1(O)C(F)(F)F (configuration not stated) ?
F

Hey, what did the test say about N#C/C(=N/Nc1ccc(F)cc1)C(=O)c1ccccc1 ?
T

Hey, what did the test say about CC(C)c1ccc(COC(=O)Nc2ccc(CSc3ccc(Cl)cc3)o2)cc1 ?
F

Hey, what did the test say about Oc1c(Cl)cc(Cl)cc1C=Nc1nc(-c2ccc3ccccc3c2)cs1 ?
F

Hey, what did the test say about Cc1cc(C)cc(Sc2ccc3nnc(-c4ccccc4)n3n2)c1 ?
F

Hey, what did the test say about N#C/C(=N/Nc1ccccc1)C(=O)c1ccccc1OC(F)(F)F ?
F

Hey, what did the test say about O=C(c1csc(-c2ccc(Cl)cc2)c1)N1CCCCC1 ?
F

Hey, what did the test say about COc1cc(Cl)ccc1N/N=C(/C#N)C(N)=O ?
T

Hey, what did the test say about Cc1c(C(=O)Sc2ccc(F)cc2F)sc2nc(C(F)(F)F)nn12 ?
T

Hey, what did the test say about CC(=O)c1ccc(Cl)c(NS(=O)(=O)c2cc(Cl)c(Cl)cc2Cl)c1 ?
F

Hey, what did the test say about COc1ccc(C(CC(=O)c2ccccc2)Sc2ccccc2N)cc1OC (configuration not stated) ?
F

Hey, what did the test say about CC1(C)CC(=O)C=C(Sc2nc3ccccc3o2)C1 ?
F

Hey, what did the test say about CCOC(=O)c1ccc2nc(N=CNO)sc2c1 ?
F

Hey, what did the test say about O=C(/C=C/c1ccc2c(c1)OCO2)Nc1ccc(Br)cc1 ?
F

Hey, what did the test say about O=C(Oc1cccc2[nH]ccc12)c1ccc(C(F)(F)F)cc1 ?
F

Hey, what did the test say about N/C(Cn1ccc(C(F)(F)F)n1)=N/OS(=O)(=O)c1cccc(Cl)c1Cl ?
F

Hey, what did the test say about N/C(CCSc1ccc(Cl)cc1)=N/OC(=O)Nc1ccc(Cl)cc1 ?
F

Hey, what did the test say about N#C/C(=N/Nc1ccc(F)cc1)S(=O)(=O)c1ccc(Cl)cc1 ?
F

Hey, what did the test say about CC(C)(C)c1ccc(C(=N)SC(C(=O)C(F)(F)F)c2ccccc2)cc1 (configuration not stated) ?
F

Hey, what did the test say about Cc1ccc(S(=O)(=O)NC(=O)Nc2ccc(Sc3ccccc3)nc2Sc2ccccc2)cc1 ?
F

Hey, what did the test say about O=[N+]([O-])c1ccc(ON=C2CCCCC2)c([N+](=O)[O-])c1 ?
F

Hey, what did the test say about COc1cccc(C2CCN(C(=O)c3cccc4ccccc34)CC2)c1 ?
F

---

# assay text: chemical genetic growth profiling, strain panel (AID 1159580);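 further: tested at 20 µM; growth read once vehicle control cultures reached saturation at 30 °C; 1 = growth at the plate median or of vehicle wells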
# measurement setup: S. cerevisiae deletion strains, growth OD, locus YPL240C, strain hsp82
Among all 5,500 compounds or so, about 2,000 (36%) were called active. Roughly 18% stayed inconclusive and do not appear here. Rule as the data show it: active = normalized growth mostly below about 0.91 (no sharp cut-off); inconclusive = no clear call, values can overlap the other calls; inactive = mostly above about 0.92. The list shows a part of the results.
// one of class 1 (active), class 0 (inactive), no free text

Hey, what did the test say about CC[C@@]1(O)C[C@H](O)c2c(cc3c(c2O)C(=O)c2c(O)ccc(O)c2C3=O)[C@H]1C(=O)OC ?
class 0

Hey, what did the test say about CC[C@@]1(O)C[C@H](O[C@H]2C[C@H](N(C)C)[C@H](O)[C@H](C)O2)c2c(cc3c(c2O)C(=O)c2c(O)cccc2C3=O)[C@H]1C(=O)OC ?
class 1

Hey, what did the test say about C=C[C@@](C)(O)CCC1C(=C)CCC2[C@@](C)(CO)CCC[C@]12C (some centres not stated) ?
class 0

Hey, what did the test say about CNCCC(Oc1ccc(C(F)(F)F)cc1)c1ccccc1 (configuration not stated) ?
class 0

Hey, what did the test say about O=C(NC(=O)c1ccccc1Cl)Nc1ccc(OC(F)(F)F)cc1 ?
class 0

Hey, what did the test say about COc1cc([C@@H]2c3cc4c(cc3C(OC3O[C@@H]5COC(C)O[C@H]5[C@H](O)[C@H]3O)C3COC(=O)[C@@H]32)OCO4)cc(OC)c1O (some centres not stated) ?
class 0

Hey, what did the test say about CC[C@@H]1C=C/C=C/C[C@H](C)[C@@H](O)[C@](C)(O)C(=O)[C@H](C)[C@@H](O)[C@H](C)C(=O)[C@H](C)[C@@H](O)[C@H](C)/C=C/C(=O)O[C@H]2[C@@H](C)[C@@H](CC1)O[C@@]1(CC[C@@H](C)[C@@H](C[C@H](C)O)O1)[C@@H]2C ?
class 0

Hey, what did the test say about COc1cc([C@@H]2c3cc4c(cc3[C@@H](O)C3COC(=O)C32)OCO4)cc(OC)c1O (some centres not stated) ?
class 0

Hey, what did the test say about CCC(C)C(=O)O[C@@H]1C[C@@]2(C)[C@H](c3ccoc3)OC(=O)CC23OC2(C)OC34[C@H](OC(=O)C(C)C)[C@@]3(O)[C@@H](OC(=O)C5(C)OC5C)[C@@]5(C)C[C@]3(O)[C@@](C)([C@H]5CC(=O)OC)C14O2 (some centres not stated) ?
class 0

Hey, what did the test say about CCCCC/C=C/CCC(=O)N[C@H]1[C@H](Oc2c3cc4cc2Oc2ccc(cc2Cl)[C@@H](O[C@@H]2O[C@H](CO)[C@@H](O)[C@H](O)[C@H]2NC(C)=O)[C@@H]2NC(=O)[C@H](NC(=O)[C@@H]4NC(=O)[C@H]4NC(=O)C(Cc5ccc(c(Cl)c5)O3)NC(=O)[C@H](N)c3ccc(O)c(c3)Oc3cc(O)cc4c3)c3ccc(O)c(c3)-c3c(OC4O[C@H](CO)[C@@H](O)[C@H](O)[C@@H]4O)cc(O)cc3[C@@H](C(=O)O)NC2=O)O[C@H](CO)[C@@H](O)[C@@H]1O (some centres not stated) ?
class 0

Hey, what did the test say about O=C(O)c1cc2cc(F)ccc2[nH]1 ?
class 0

Hey, what did the test say about C[C@]12CCC(=O)C=C1C=CC1C2CC[C@@]2(C)C1CC[C@@]2(O)CCC(=O)O (some centres not stated) ?
class 0

---

Can you tell me normalized growth for the items I'm about to list?
# assay text: chemical genetic growth profiling, strain panel (AID 1159580);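 further: tested at 20 µM; growth read once vehicle control cultures reached saturation at 30 °C; 1 = growth at the plate median or of vehicle wells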
# measurement setup: S. cerevisiae deletion strains, growth OD, locus YJL134W, strain LCB3, stronger effect = lower value
The whole screen tested about 5,500 compounds, of which about 2,000 (36%) were called active. About 18% were inconclusive and are not listed. The list shows a part of the results.

Item under review: COc1ccc(C(CN(C)C)C2(O)CCCCC2)cc1 (stereo not given) . Reported normalized growth?
1.01 (inactive)

Item under review: CCC(C)C(=O)O[C@@H]1C[C@@]2(C)[C@H](c3ccoc3)OC(=O)CC23OC2(C)OC34[C@H](OC(=O)C(C)C)[C@@]3(O)[C@@H](OC(=O)C5(C)OC5C)[C@@]5(C)C[C@]3(O)[C@@](C)([C@H]5CC(=O)OC)C14O2 (stereo not given in full) . Reported normalized growth?
1 (inactive)

Item under review: COc1ccc(C(c2ccc(OC)cc2)C(Cl)(Cl)Cl)cc1 . Reported normalized growth?
0.989 (inactive)

Item under review: COc1ccc(C(=O)CC(=O)O)c2c1C=CC(C)(C)O2 . Reported normalized growth?
0.995 (inactive)

Item under review: CC1(C)S[C@@H]2[C@H](NC(=O)[C@H](N)c3ccccc3)C(=O)N2[C@H]1C(=O)O . Reported normalized growth?
1.01 (inactive)
